Exercise: for every item that follows, state its recorded MIC90.
Test system: Enterococcus faecium
Assay summary: microbe, parasite or virus in culture
Type: functional
Condition: ATCC 27270, 24 h
Description: Antibacterial activity against Enterococcus faecium ATCC 27270 after 24 hrs by macrobroth dilution method in the presence of bovine serum albumin

The recorded MIC90 for entry `CC(C)(C)CC(C)(C)c1ccc(OCc2cn(C[C@H]3O[C@@H](O[C@@H]4[C@@H](O)[C@H](N)C[C@H](N)[C@H]4O[C@H]4O[C@H](CN)[C@@H](O)[C@H](O)[C@H]4N)[C@H](O)[C@@H]3O[C@H]3O[C@@H](CN)[C@@H](O)[C@H](O)[C@H]3N)nn2)c(Cc2ccc(Cl)cc2Cl)c1` equals 8 µg/mL

The recorded MIC90 for entry `Cc1cc(O)cc(C)c1Cl` equals > 512 µg/mL

The recorded MIC90 for entry `Cc1cc(OCCCCc2cn(C[C@H]3O[C@@H](O[C@@H]4[C@@H](O)[C@H](N)C[C@H](N)[C@H]4O[C@H]4O[C@H](CN)[C@@H](O)[C@H](O)[C@H]4N)[C@H](O)[C@@H]3O[C@H]3O[C@@H](CN)[C@@H](O)[C@H](O)[C@H]3N)nn2)cc(C)c1Cl` equals 32 µg/mL

The recorded MIC90 for entry NC[C@@H]1O[C@H](O[C@H]2[C@@H](O)[C@H](O[C@@H]3[C@@H](O)[C@H](N)C[C@H](N)[C@H]3O[C@H]3O[C@H](CN)[C@@H](O)[C@H](O)[C@H]3N)O[C@@H]2CO)[C@H](N)[C@@H](O)[C@@H]1O.O.O=S(=O)(O)O [NEOMYCIN TRISULFATE HYDRATE] equals 4 µg/mL

The recorded MIC90 for entry `Cc1cc(OCc2cn(C[C@H]3O[C@@H](O[C@@H]4[C@@H](O)[C@H](N)C[C@H](N)[C@H]4O[C@H]4O[C@H](CN)[C@@H](O)[C@H](O)[C@H]4N)[C@H](O)[C@@H]3O[C@H]3O[C@@H](CN)[C@@H](O)[C@H](O)[C@H]3N)nn2)cc(C)c1Cl` equals 64 µg/mL

The recorded MIC90 for entry `CC(C)(C)CC(C)(C)c1ccc(OCCCCc2cn(C[C@H]3O[C@@H](O[C@@H]4[C@@H](O)[C@H](N)C[C@H](N)[C@H]4O[C@H]4O[C@H](CN)[C@@H](O)[C@H](O)[C@H]4N)[C@H](O)[C@@H]3O[C@H]3O[C@@H](CN)[C@@H](O)[C@H](O)[C@H]3N)nn2)c(Cc2ccc(Cl)cc2Cl)c1` equals 16 µg/mL

The recorded MIC90 for entry `Oc1cc(Cl)ccc1Oc1ccc(Cl)cc1Cl` equals 512 µg/mL

###

Test system: Klebsiella pneumoniae
Assay summary: microbe, parasite or virus in culture
Type: functional
Condition: ATCC 13883, 24 h
Description: Antibacterial activity against Klebsiella pneumoniae ATCC 13883 after 24 hrs by macrobroth dilution method
Property: MIC90 (µg/mL)
The reply should be a number in µg/mL, with the unit left off.

The recorded MIC90 for entry `CC(C)(C)CC(C)(C)c1ccc(OCc2cn(C[C@H]3O[C@@H](O[C@@H]4[C@@H](O)[C@H](N)C[C@H](N)[C@H]4O[C@H]4O[C@H](CN)[C@@H](O)[C@H](O)[C@H]4N)[C@H](O)[C@@H]3O[C@H]3O[C@@H](CN)[C@@H](O)[C@H](O)[C@H]3N)nn2)c(Cc2ccc(Cl)cc2Cl)c1` equals 64

The recorded MIC90 for entry `Cc1cc(OCc2cn(C[C@H]3O[C@@H](O[C@@H]4[C@@H](O)[C@H](N)C[C@H](N)[C@H]4O[C@H]4O[C@H](CN)[C@@H](O)[C@H](O)[C@H]4N)[C@H](O)[C@@H]3O[C@H]3O[C@@H](CN)[C@@H](O)[C@H](O)[C@H]3N)nn2)cc(C)c1Cl` equals 8

The recorded MIC90 for entry NC[C@@H]1O[C@H](O[C@H]2[C@@H](O)[C@H](O[C@@H]3[C@@H](O)[C@H](N)C[C@H](N)[C@H]3O[C@H]3O[C@H](CN)[C@@H](O)[C@H](O)[C@H]3N)O[C@@H]2CO)[C@H](N)[C@@H](O)[C@@H]1O.O.O=S(=O)(O)O [NEOMYCIN TRISULFATE HYDRATE] equals 0.25
